Cited source: ChEMBL document CHEMBL4396884

# Method notes: Clearance in Sprague-Dawley rat at 10 mg/kg, iv by LC-MS/MS analysis
# Assay type: ADME, organism-based
# Conditions used: in vivo
Measured parameter: clearance

COc1cc2c(cc1OC)[C@H](CCc1c[nH]c3cc(C)ccc13)N(C=O)CC2 has a reported clearance of 28.3 mL/min/kg
